- System: NKL (IL-2 2.5 ng/mL)
- procedure details: percent inhibition of viability; higher = more inhibition;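 further: normalised to DMSO-only wells as negative and benzethonium chloride as positive control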
- test conditions: 72 h; 10 nM
test readout: percent inhibition of viability (%)
The reply should be a number in %, with the unit left off.

Use the examples below as a reference point.
Cc1ncc(-c2ccnc(Nc3ccc(S(C)(=O)=O)cc3)n2)n1C(C)C [AZD-5438] (max concentration tested 10000 nM) ... -5.93
Nc1cccc2c1CN(C1CCC(=O)NC1=O)C2=O (stereo not given) [Lenalidomide] (max concentration tested 100000 nM) ... -12.2
O=C(CCBr)N1CCN(C(=O)CCBr)CC1 [Pipobroman] (max concentration tested 10000 nM) ... -17.8
C[C@@H](Oc1cc(-c2cnn(C3CCNCC3)c2)cnc1N)c1c(Cl)ccc(F)c1Cl [Crizotinib] (max concentration tested 1000 nM) ... -5.42
C/C(=C\c1csc(C)n1)[C@@H]1C[C@@H]2O[C@]2(C)CCC[C@H](C)[C@H](O)[C@@H](C)C(=O)C(C)(C)[C@@H](O)CC(=O)N1 [Ixabepilone] (max concentration tested 1000 nM) ... -11
CC[C@H](CO)Nc1nc(NCc2ccccc2)c2ncn(C(C)C)c2n1 [Seliciclib] (max concentration tested 10000 nM) ... -15.7
Cc1cc(Nc2cc(N3CCN(C)CC3)nc(/C=C/c3ccccc3)n2)n[nH]1 [ENMD-2076] (max concentration tested 10000 nM) ... 5.63
Cc1c(Cn2c(C)nc3c(C(=O)O)cc(N4CCOCC4)cc32)cccc1C(F)(F)F (max concentration tested 10000 nM) ... -8.49
CCN(c1cc(-c2ccc(CN3CCOCC3)cc2)cc(C(=O)NCc2c(C)cc(C)[nH]c2=O)c1C)C1CCOCC1 [E7438] (max concentration tested 10000 nM) ... -3.23
O=C(NC1CCNCC1)c1n[nH]cc1NC(=O)c1c(Cl)cccc1Cl [AT7519] (max concentration tested 10000 nM) ... 5.88

Next molecule, percent inhibition of viability to be filled in.
**Q:** Would you kindly share the measured percent inhibition of viability for CC(O)(CS(=O)(=O)c1ccc(F)cc1)C(=O)Nc1ccc(C#N)c(C(F)(F)F)c1 (stereo not given) [Bicalutamide] (max concentration tested 10000 nM) ?
**A:** 16.2

---

Overview of reported percent inhibition of viability across a group of molecules:
- Tested on: DERL-7 (IL-2 2.5 ng/mL)
- procedure details: percent inhibition of viability; higher = more inhibition
- test conditions: 72 h; 100 nM
Give the quantity in %, number only.

C#Cc1cccc(Nc2ncnc3cc(OCCOC)c(OCCOC)cc23)c1 [Erlotinib] (max concentration tested 10000 nM) ... -1.33
COc1ccc(-c2cc3c(C)nc(N)nc3n([C@H]3CC[C@H](OCCO)CC3)c2=O)cn1 (max concentration tested 10000 nM) ... 69.6
CON(C)C(=O)N1N=C(c2cc(F)ccc2F)S[C@@]1(CCCN)c1ccccc1 [ARRY-520] (max concentration tested 1000 nM) ... 100

**Q:** Which measured percent inhibition of viability value corresponds to O=c1ncn2nc(Sc3ccc(F)cc3F)ccc2c1-c1c(Cl)cccc1Cl [VX 745] (max concentration tested 10000 nM) ?
**A:** 3.17

**Q:** Which percent inhibition of viability is reported for this molecule? CN[C@@H]1C[C@H]2O[C@@](C)([C@@H]1OC)n1c3ccccc3c3c4c(c5c6ccccc6n2c5c31)C(=O)N[C@H]4O [UCN-01] (max concentration tested 10000 nM)
**A:** 82.2

**Q:** Given Cc1ccc(NC(=O)c2ccc(CN3CCN(C)CC3)cc2)cc1Nc1nccc(-c2cccnc2)n1 [Imatinib] (max concentration tested 10000 nM) , state its recorded percent inhibition of viability.
**A:** 5.95

**Q:** So what does the record say about percent inhibition of viability for CN1CCN(CCOc2cc(OC3CCOCC3)c3c(Nc4c(Cl)ccc5c4OCO5)ncnc3c2)CC1 [Saracatinib] (max concentration tested 10000 nM) ?
**A:** 7.09

**Q:** Record request: percent inhibition of viability value, item COc1ccc(-c2ccc3c(N4CCOC[C@@H]4C)nc(N4CCOC[C@@H]4C)nc3n2)cc1CO [AZD8055] (max concentration tested 10000 nM)
**A:** 65.8

**Q:** If you can, please state the reported percent inhibition of viability value of CCC/C=C/C=C/C(=O)O[C@H]1/C(=C/C(=O)OC)C[C@H]2C[C@H]([C@@H](C)O)OC(=O)C[C@H](O)C[C@@H]3C[C@H](OC(C)=O)C(C)(C)[C@](O)(C[C@@H]4C/C(=C/C(=O)OC)C[C@H](/C=C/C(C)(C)[C@]1(O)O2)O4)O3 [Bryostatin 1] (max concentration tested 100 nM) .
**A:** 35.2

**Q:** Looking for the measured percent inhibition of viability of CC[C@@H]1C(=O)N(C)c2cnc(Nc3ccc(C(=O)N[C@H]4CC[C@H](N5CCN(CC6CC6)CC5)CC4)cc3OC)nc2N1C(C)C [Volasertib] (max concentration tested 1000 nM) , can you help?
**A:** 98.3

**Q:** Dear colleague, I am looking for the recorded percent inhibition of viability of the following molecule: O=C1c2c(O)ccc(O)c2C(=O)c2c(NCCNCCO)ccc(NCCNCCO)c21 [Mitoxantrone] (max concentration tested 1000 nM)
**A:** 45.4
